- Read-out: Plasminogen activator inhibitor-1 (PAI1), SERPINE1 (gene 5054)
- Measurement description: BSK_MyoF_PAI1: BioMAP Diversity Plus: MyoF Assay for Plasminogen activator inhibitor-1 (PAI1) Biomarker Activity (AID 2284256)
- Details: primary human lung fibroblasts
The source made the active and inactive calls. How the source made its calls: active means hit-call score of the fitted dose curve at least 0.9, where 1 is the maximum; inactive means score below 0.9.
One label from this list, please: class 1 for active, class 0 for inactive

# example entries with known answers
Mol	Label value
C=C(C)[C@H]1CC=C(C)C(=O)C1	class 0
COc1ccc(CCN2CCC(Nc3nc4ccccc4n3Cc3ccc(F)cc3)CC2)cc1	class 0

I'd appreciate the recorded outcome for CS(=O)(=O)c1ccc(C2=C(c3ccccc3)C(=O)OC2)cc1 from this test.
class 1

----------
- Measured target: CCAAT/enhancer-binding protein beta (Homo sapiens)
- Measurement description: ATG_C_EBP_CIS: Attagene CIS-FACTORIAL HepG2 Assay for human CCAAT/Enhancer Binding Protein (C/EBP) beta (AID 2282927)
- Details: HepG2 Attagene cis-factorial transcription factor reporter; actives raise or lower the signal
Activity calls are given as the source filed them. How the source made its calls: active means hit-call score of the fitted dose curve at least 0.9, where 1 is the maximum; inactive means score below 0.9.
One label from this list, please: active, inactive

# example entries with known answers
Molecule	Measured target	Label value
N#Cc1ccc(CC(=O)c2cccc(C(F)(F)F)c2)cc1	CCAAT/enhancer-binding protein beta (Homo sapiens)	inactive
CC(C)=CCCC(C)CCOC=O (stereo not drawn)	CCAAT/enhancer-binding protein beta (Homo sapiens)	inactive
CSCCC=O	CCAAT/enhancer-binding protein beta (Homo sapiens)	inactive
Cc1cc(=O)oc2cc(N(C)C)ccc12	CCAAT/enhancer-binding protein beta (Homo sapiens)	inactive
Cc1ccc(S(=O)(=O)Oc2ccc(N=Nc3ccc(-c4ccc(N=Nc5c(O)ccc6cc(S(=O)(=O)O)cc(S(=O)(=O)O)c56)c(C)c4)cc3C)cc2)cc1	CCAAT/enhancer-binding protein beta (Homo sapiens)	inactive
CCc1ncc(C)[nH]1	CCAAT/enhancer-binding protein beta (Homo sapiens)	inactive
O=C1OC[C@H](Cc2cccc(O)c2)[C@H]1Cc1cccc(O)c1	CCAAT/enhancer-binding protein beta (Homo sapiens)	inactive
Clc1cc(Cl)c(-c2c(Cl)c(Cl)cc(Cl)c2Cl)cc1Cl	CCAAT/enhancer-binding protein beta (Homo sapiens)	inactive
Nc1ccc2c(O)cc(S(=O)(=O)O)cc2c1	CCAAT/enhancer-binding protein beta (Homo sapiens)	inactive
COc1cc(C(C)C)ccc1C	CCAAT/enhancer-binding protein beta (Homo sapiens)	inactive

I'd appreciate the recorded outcome for COc1ccc(N)c([N+](=O)[O-])c1 from this test.
inactive

I'd appreciate the recorded outcome for CC/C=C\CC/C=C/CO from this test.
inactive

----------
- Measurement description: ATG_BRE_CIS: Attagene CIS-FACTORIAL HepG2 Assay for human Bone Morphogenetic Protein (BMP) Response Element (BRE) (AID 2282933)
- Details: HepG2 BMP response element reporter, Attagene transcription factor profiling; actives raise or lower the signal
Activity calls are given as the source filed them. How the source made its calls: active means hit-call score of the fitted dose curve at least 0.9, where 1 is the maximum; inactive means score below 0.9.
One label from this list, please: active, inactive

# example entries with known answers
Compound	Label value
C=CC(C)C#N (configuration not stated)	inactive
Cc1ccc(S(=O)(=O)Oc2ccc(N=Nc3ccc(-c4ccc(N=Nc5c(O)ccc6cc(S(=O)(=O)O)cc(S(=O)(=O)O)c56)c(C)c4)cc3C)cc2)cc1	active
O=CCc1ccccc1	inactive
COc1cc(C(C)C)ccc1C	inactive
C=C(CC(=O)O)C(=O)O	inactive
COc1ccccc1N=Nc1c(S(=O)(=O)O)cc2cc(S(=O)(=O)O)cc(NC(C)=O)c2c1O	inactive
CN(C)CCOc1ccc(/C(=C(/CCCl)c2ccccc2)c2ccccc2)cc1	inactive
COC(=O)c1ccc(OC)cc1	inactive
O=C1OC(=O)c2c(Cl)c(Cl)c(Cl)c(Cl)c21	inactive
CCCCCCCC/C=C\CCCCCCCC(=O)OCC	inactive

Moving on to the next compound.
I'd appreciate the recorded outcome for C[C@H](CCC(=O)NCC(=O)O)[C@H]1CC[C@H]2[C@@H]3[C@H](O)C[C@@H]4C[C@H](O)CC[C@]4(C)[C@H]3C[C@H](O)[C@]12C from this test.
inactive

----------
- Measurement description: ATG_RORE_CIS: Attagene CIS-FACTORIAL HepG2 Assay for human RAR-related Orphan Receptor Element (RORE) (AID 2282959)
- Details: HepG2 Attagene cis-factorial RORE reporter, mRNA; actives raise or lower the signal
Calls of active or inactive are those of the source. Rule for the calls: active = hit-call score of the fitted dose curve at least 0.9, where 1 is the maximum; inactive = score below 0.9.
One label from this list, please: Y for active, N for inactive

# example entries with known answers
Compound	Label value
COc1cc([C@@H]2c3cc4c(cc3[C@@H](O[C@@H]3O[C@@H]5CO[C@@H](C)O[C@H]5[C@H](O)[C@H]3O)[C@H]3COC(=O)[C@H]23)OCO4)cc(OC)c1O	N
CCC(C)S (centres undefined)	N
CC1(C)O[C@@H]2[C@@H](CO[C@@]3(COS(N)(=O)=O)OC(C)(C)O[C@@H]23)O1	N
CCOC(=O)C1OC1c1ccccc1 (centres undefined)	N
CCCSc1ccc2nc(NC(=O)OC)[nH]c2c1	N

I'd appreciate the recorded outcome for O=[N+]([O-])c1cccc(Cl)c1 from this test.
N

I'd appreciate the recorded outcome for CCCCC1(COC(=O)CCC(=O)O)C(=O)N(c2ccccc2)N(c2ccccc2)C1=O from this test.
N

I'd appreciate the recorded outcome for c1ccc(CCc2ccccc2)cc1 from this test.
N

I'd appreciate the recorded outcome for CCCCC(CC)(CO)CO from this test.
N

----------
- Read-out: Vascular cell adhesion molecule 1 (VCAM1), VCAM1 (gene 7412)
- Measurement description: BSK_hDFCGF_VCAM1: BioMAP Diversity Plus: hDFCGF Assay for Vascular cell adhesion molecule 1 (VCAM1) Biomarker Activity (AID 2283065);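 on AC50: VCAM-1 protein level quantified by ELISA after 24 h chemical exposure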
- Details: primary human foreskin fibroblasts; actives raise or lower the signal
Calls of active or inactive are those of the source. Rule for the calls: active = hit-call score of the fitted dose curve at least 0.9, where 1 is the maximum; inactive = score below 0.9.
Quantity name: AC50

Illustrative cases are given below, each with its answer.
Mol	Reading
Clc1cc(Cl)c(-c2c(Cl)c(Cl)cc(Cl)c2Cl)cc1Cl	14.5 µM (active)
CN(c1nccc(=O)[nH]1)C1CCN(c2nc3ccccc3n2Cc2ccc(F)cc2)CC1	inactive
CN(C)C(=S)SC(=S)N(C)C	31.2 µM (active)
Cc1cc(CCC(=O)OCCOCCOCCOC(=O)CCc2cc(C)c(O)c(C(C)(C)C)c2)cc(C(C)(C)C)c1O	inactive
CN(C)C(=O)Nc1ccc(Oc2ccc(Cl)cc2)cc1	inactive

Give AC50 for COc1cc(Cl)c(OC)cc1N
inactive

Give AC50 for O=CN1CCOCC1
inactive

Give AC50 for C=C(C)C(=O)OCC(CC)(COC(=O)C(=C)C)COC(=O)C(=C)C
23.4 µM (active)

Give AC50 for CC(C)(N=C=O)c1cccc(C(C)(C)N=C=O)c1
inactive

----------
- Measurement description: ATG_CMV_CIS: Attagene CIS-FACTORIAL HepG2 Assay for human CMV (Internal Marker) (AID 2282928);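 further: endpoint acts as a background internal control marker rather than a target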
- Details: HepG2 CMV promoter reporter, transcription factor profiling; actives raise or lower the signal
- Description: ATG_CIS is a cell-based, multiplexed-readout assay that uses HepG2, a human liver cell line, with measurements taken at 24 hours after chemical dosing in a 24-well plate.ATG_CMV_CIS is one of 52 assay component(s) measured or calculated from the ATG_CIS assay. […] This assay endpoint, ATG_CMV_CIS, was analyzed with bidirectional fitting relative to DMSO as the negative control and baseline of activity. […]
The source made the active and inactive calls. Rule for the calls: active = hit-call score of the fitted dose curve at least 0.9, where 1 is the maximum; inactive = score below 0.9.
One label from this list, please: true for active, false for inactive

# example entries with known answers
Molecule	Label value
CCc1ccc(O)cc1	false
C=C(C)C(=O)OCCOCCOCCOCCOC(=O)C(=C)C	false

I'd appreciate the recorded outcome for O=C(O)CCCCCCCCC(=O)O from this test.
false

I'd appreciate the recorded outcome for CC(C)C(OC(=O)c1ccccc1)C(C)(C)COC(=O)c1ccccc1 (stereo not given) from this test.
false

----------
- Measurement description: BSK_KF3CT_SRB: Viability Assessment in the BioMAP Diversity Plus: KF3CT Assay (AID 2283069);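 further: total protein by sulforhodamine B staining as a cytotoxicity measure; read 24 h after compound addition; fitted for both signal gain and loss against DMSO baseline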
- Details: primary human keratinocytes with fibroblasts
The source made the active and inactive calls. How the source made its calls: active means hit-call score of the fitted dose curve at least 0.9, where 1 is the maximum; inactive means score below 0.9.
One label from this list, please: 1 for active, -1 for inactive

# example entries with known answers
Molecule	Label value
CC(=O)c1c(C)c([N+](=O)[O-])c(C(C)(C)C)c([N+](=O)[O-])c1C	-1
COc1cc(Cl)c(OC)cc1N	-1
O=CN1CCOCC1	-1
CS(=O)(=O)OCCCCOS(C)(=O)=O	-1
COc1ccc(CCN2CCC(Nc3nc4ccccc4n3Cc3ccc(F)cc3)CC2)cc1	-1

I'd appreciate the recorded outcome for C=C(C)C(=O)OCCOCCOCCOCCOC(=O)C(=C)C from this test.
-1

I'd appreciate the recorded outcome for CN(C)C(=S)SC(=S)N(C)C from this test.
-1

I'd appreciate the recorded outcome for O=C(Nc1ccc2c(O)c(N=Nc3ccc(N=Nc4ccc(S(=O)(=O)O)cc4)cc3)c(S(=O)(=O)O)cc2c1)c1ccccc1 from this test.
-1

I'd appreciate the recorded outcome for CCC(C)c1cc([N+](=O)[O-])cc([N+](=O)[O-])c1OC(=O)OC(C)C (configuration not stated) from this test.
1

I'd appreciate the recorded outcome for CCCCN(CCCC)C(=O)N(CCCC)CCCC from this test.
1

I'd appreciate the recorded outcome for CCCCCC(C=O)=Cc1ccccc1 from this test.
1

I'd appreciate the recorded outcome for CC1(C)C2=CCCC(C)(C)[C@]23CC[C@H]1C3 from this test.
-1

I'd appreciate the recorded outcome for CCOC(=O)C(C#N)=C(c1ccccc1)c1ccccc1 from this test.
-1

I'd appreciate the recorded outcome for Oc1c(Cl)cc(Cl)c(Cl)c1Cc1c(O)c(Cl)cc(Cl)c1Cl from this test.
1

I'd appreciate the recorded outcome for O=C1OC[C@H](Cc2cccc(O)c2)[C@H]1Cc1cccc(O)c1 from this test.
-1

I'd appreciate the recorded outcome for CS(=O)(=O)c1ccc(C2=C(c3ccccc3)C(=O)OC2)cc1 from this test.
-1

I'd appreciate the recorded outcome for CC(CN=Cc1ccccc1O)N=Cc1ccccc1O (configuration not stated) from this test.
-1
